Numbers sourced from PubChem BioAssay (NCI).

Test system: BT-549 breast
protocolDescription: NCI tumour cell line growth inhibition, 48 h
Listing of entries alongside the reported TGI.

INSERT INTO assay_data (compound, endpoint, endpointresult) VALUES
  ('COc1ccc(C(C2=C(O)COC2=O)c2cc3c(cc2O)OCO3)cc1OC (stereo not drawn)', 'TGI', '> 100 µM'),
  ('Cc1cc(N2CCN(C)CC2)n2nc(-c3ccc(Cl)cc3)nc2n1', 'TGI', '> 100 µM');

Turning now to a further compound:
Record CC1=NC(=Cc2ccc([N+](=O)[O-])cc2)C(=O)N1n1c(-c2ccccc2)nc2ccccc2c1=O ; system BT-549 breast; TGI = > 100 µM

====

Listing of entries alongside the reported TGI.
Tested on: HCT-116 colon
protocolDescription: NCI tumour cell line growth inhibition, 48 h

The cases that follow already have their TGI on record.
INSERT INTO measurements (molecule, endpointresult) VALUES
  ('Cc1ccc(S(=O)(=O)NC(CN)C(=O)O)cc1 (stereo not given)', '> 100 µM'),
  ('CC(=O)[O][Hg][c]1c(C)c(C)cc(C)c1C', '3.66 µM');

Entry O=C(CCc1ccccc1)On1c(-c2ccccc2)nc2ccccc2c1=S ; TGI = 8.81 µM

Entry O=C1Cc2cc(C(=O)NC3C[C@H]4CC[C@@H](C3)N4S(=O)(=O)CC3CCN(CCCC(F)(F)F)CC3)c(Cl)cc2N1 (stereo not given in full) ; TGI = > 100 µM

Entry Cc1c(/C=N/N(C)C)oc2c1cc(O)c1ncccc12 ; TGI = > 100 µM

====

Tested on: HL-60(TB) leukemia
protocolDescription: NCI tumour cell line growth inhibition, 48 h; in the data active = GI50 below about 0.43 µM; inactive = the rest
Respond only with the outcome that fits, drawn from TRUE = active, FALSE = inactive

INSERT INTO assay_data (molecule, classlabel) VALUES
  ('CCCCCCCCCCCC[n+]1ccc2ccccc2c1', 'TRUE'),
  ('Cn1c(-c2c(N)n(CCCN3CCOCC3)c3nc(C#N)c(C#N)nc23)nc2ccccc21', 'FALSE'),
  ('CCCCCCCCCCCCCC[C@@H](O)[C@H]1CC[C@H]([C@H]2CC[C@H]([C@H](O)CCCCCC[C@@H](O)CC3=C[C@H](C)OC3=O)O2)O1', 'FALSE'),
  ('COc1cccc(/C=N/[N-]C(N)=O)c1[O-].[Cu+2].[OH3+].c1ccc(-c2ccccn2)nc1', 'FALSE');

Identify the outcome logged in this assay for the molecule shown: CN(CC(=O)N(Cc1ccc(C2CCCCC2)cc1)c1ccc(C(=O)O)cc1)S(=O)(=O)c1c(F)c(F)c(F)c(F)c1F FALSE

====

Test system: HCT-116 colon
protocolDescription: NCI tumour cell line growth inhibition, 48 h; in the data active = GI50 below about 0.43 µM; inactive = the rest
Respond only with the outcome that fits, drawn from active, inactive

INSERT INTO assay_data (molecule, classlabel) VALUES
  ('O=C(Nc1nc2ccccc2s1)Nc1ccc([N+](=O)[O-])cc1Cl', 'inactive'),
  ('COc1nnc2ccc(N3CCC(c4ccc(OCCN5CCN(C)C(=O)[C@H]5C)cc4)CC3)nn12', 'active'),
  ('CO[C@H]1C[C@@H]2CC[C@@H](C)[C@@](O)(O2)C(=O)C(=O)N2CCCC[C@H]2C(=O)O[C@H]([C@H](C)C[C@@H]2CC[C@@H](OCCO)[C@H](OC)C2)CC(=O)[C@H](C)C=C(C)[C@@H](O)[C@@H](OC)C(=O)[C@H](C)C[C@H](C)/C=C/C=C/C=C1C', 'inactive'),
  ('C#CCOc1ccc2ncnc(Nc3ccc(NC(=O)C=C)cc3)c2c1', 'inactive');

Identify the outcome logged in this assay for the molecule shown: CC(=O)[CH-]C(=O)c1ccccc1.CC(=O)[CH-]C(=O)c1ccccc1.C[C@]12CCC(=O)C=C1CC[C@@H]1C2CC[C@@]2(C)C1CC[C@]2(C)[O-].C[C@]12CCC(=O)C=C1CC[C@@H]1C2CC[C@@]2(C)C1CC[C@]2(C)[O-].Cl.[Ti+4] (stereo not given in full) inactive

====

System: SNB-19 CNS
protocolDescription: NCI tumour cell line growth inhibition, 48 h; in the data active means GI50 below about 0.43 µM; inactive means the rest
Respond only with the outcome that fits, drawn from active, inactive

INSERT INTO results (compound, classlabel) VALUES
  ('Cc1cc(Cl)nc(N(CCCNc2ccnc3cc(Cl)ccc23)Cc2ccco2)n1', 'inactive'),
  ('CN(CCCNC(=O)CCOCCOCCOCCNC(=O)Cc1ccc2ccc3cccc4ccc1c2c34)CCCNc1cc(-c2ccc3ccccc3c2)nc2ccccc12', 'inactive'),
  ('CN(Cc1cnc2nc(N)nc(N)c2n1)c1ccc(C(=O)NC(CCC(=O)O)C(=O)O)cc1Br (centres undefined)', 'active'),
  ('NC(=S)c1c(N)n(C2OC(CO)C(O)C2O)c2ncnc(N)c12 (centres undefined)', 'inactive'),
  ('CN1CSC(=S)N(Cc2ccccc2)C1', 'inactive');

Identify the outcome logged in this assay for the compound shown: COc1cc2nc3cc([N+](=O)[O-])ccc3c(NCCNCC(C)(C)O)c2cc1OC inactive

====

Listing of entries alongside the reported TGI.
Tested on: RXF 393 renal
protocolDescription: NCI tumour cell line growth inhibition, 48 h

The cases that follow already have their TGI on record.
INSERT INTO assay_data (molecule, endpointresult) VALUES
  ('CN(C)C(=S)SCC(=O)Nc1ccccc1', '> 100 µM'),
  ('c1cnc(N2CCN(Cc3c[nH]c4ccccc34)CC2)nc1', '> 100 µM'),
  ('O=S(=O)(c1cnccc1N1CCN(CCO)CC1)N1CCCC1', '> 100 µM'),
  ('CC(C)(C)OC(=O)NCCCCC(NC(=O)c1ccccc1)C(N)=O (configuration not stated)', '> 100 µM'),
  ('CSc1c(C(=O)Nc2ccc(Cl)cc2)c(N)n(N)c(=O)c1C#N', '> 100 µM');

Record C[N+]1(CCN[N+]2(C)CCCCC2)CCc2ccccc2C1 (configuration not stated) ; system RXF 393 renal; TGI = > 100 µM

Record Cc1ccc(NC(=O)C(=O)CC(=O)c2sc(Nc3c(C)cccc3C)nc2C)cc1C ; system RXF 393 renal; TGI = > 100 µM

Record CC(=O)NC(CC(C)C)C(=O)NC(Cc1ccccc1)C(=S)N1CCCC1 (configuration not stated) ; system RXF 393 renal; TGI = > 100 µM

Record CCN(CC)c1ccc2cc(C(=O)Nc3ccccn3)c(=N)oc2c1 ; system RXF 393 renal; TGI = > 100 µM

====

Tested on: HS 578T breast
protocolDescription: NCI tumour cell line growth inhibition, 48 h
endpoint: TGI

The cases that follow already have their TGI on record.
INSERT INTO results (compound, endpointresult) VALUES
  ('Cc1cc(N2CCN(C)CC2)n2nc(-c3ccc(Cl)cc3)nc2n1', '> 100 µM'),
  ('CCOC(=O)Cc1nc2c(N)ncnc2n1C1OC(COC(C)=O)C(OC(C)=O)C1OC(C)=O (stereo not given)', '> 100 µM'),
  ('COC(=O)c1ccc(Nc2nc3nc[nH]c3c(=O)[nH]2)cc1', '> 100 µM'),
  ('O=[N+]([O-])c1ccc(O)c(/C=N/NC(=S)N2CCCCC2)c1', '> 60 µM');

Turning now to a further compound:
Entry COc1cc(N(Cc2ccc3oc(=O)c(-c4ccccc4)nc3c2)Cc2ccc3oc(=O)c(-c4ccccc4)nc3c2)cc(OC)c1OC ; TGI = > 10 µM

====

Tested on: MCF7 breast
protocolDescription: NCI tumour cell line growth inhibition, 48 h
endpoint: TGI

The cases that follow already have their TGI on record.
INSERT INTO measurements (compound, endpoint, endpointresult) VALUES
  ('NNC(=O)c1cc(=O)[nH][nH]1', 'TGI', '> 100 µM'),
  ('Cn1c(-c2c(N)n(CCCN3CCOCC3)c3nc(C#N)c(C#N)nc23)nc2ccccc21', 'TGI', '> 43.8 µM'),
  ('CC1C(c2ccc(Cl)cc2)c2cc3c(cc2OC1N1CCOCC1)OCO3 (stereo not given)', 'TGI', '> 100 µM');

Record C/C1=C\C=C(\C(C)C)CC/C(C(=O)O)=C\CC/C(C)=C/CC1 ; system MCF7 breast; TGI = 34.8 µM

Record C[C@H]1S[C@H](c2c(Cl)cccc2Cl)N2Cc3ccccc3N=C12 ; system MCF7 breast; TGI = 42.1 µM

Record CCOC(=O)Cc1nc2c(N)ncnc2n1C1OC(COC(C)=O)C(OC(C)=O)C1OC(C)=O (stereo not given) ; system MCF7 breast; TGI = > 100 µM

====

Listing of entries alongside the reported TGI.
System: MOLT-4 leukemia
protocolDescription: NCI tumour cell line growth inhibition, 48 h

The cases that follow already have their TGI on record.
INSERT INTO results (molecule, endpoint, endpointresult) VALUES
  ('CC(SC(=O)Nc1ccc(N=Nc2ccccc2)cc1)C(=O)O (stereo not given)', 'TGI', '> 100 µM'),
  ('O=[N+]([O-])c1cccc(C2CC(c3ccccc3)=Nc3ccccc3S2)c1 (stereo not given)', 'TGI', '> 100 µM'),
  ('C=CCOCn1cc(C)c(=O)[nH]c1=O', 'TGI', '> 100 µM');

Entry COc1cc(C2c3cc4c(cc3OC(N3CCNCC3)C2C)OCO4)cc(OC)c1OC (stereo not given) ; TGI = 14.4 µM

Entry CCOC(=O)N(c1ccccc1)N(CC)C(=O)/C(C)=N/Nc1ccc([N+](=O)[O-])cc1 ; TGI = 52.6 µM

Entry c1ccc2c3c([nH]c2c1)C(c1ccc(C2NCCc4c2[nH]c2ccccc42)cc1)NCC3 (stereo not given) ; TGI = 1.53 µM

Entry N#C[C@H](c1nc2ccccc2s1)c1nc2ccccc2nc1Cl ; TGI = > 100 µM

Entry COC(=O)[C@H]1CCCN1C(=O)[C@H]1CCCN1C(=O)[C@H](Cc1c[nH]c2ccccc12)NC(=S)Nc1cc(C(F)(F)F)cc(C(F)(F)F)c1 ; TGI = > 100 µM
